Provide the reported melting point of each item.

Some solved entries appear below for comparison.
| Compound | Reported endpoint | Result value |
| --- | --- | --- |
| O=C(Cn1cncn1)c1ccc(Cl)cc1 | melting point | 151 to 153 °C |
| CCOC(=O)c1ncc2[nH]c3ccc(CC)cc3c2c1C | melting point | 158 to 163 °C |
| CCOc1ccc2nc3ccc(C(=O)O)cn3c(=O)c2c1 | melting point | 260 to 265 °C |
| CN(c1ccc(O)cc1)c1cc2ccc(Cl)cc2c(O)n1 | melting point | 266 °C |
| Cc1cc(C)c(-n2ccc3c(OCc4ccc(C(F)(F)F)cc4)nn(C)c(=O)c32)c(C)c1 | melting point | 178 to 180 °C |
| CCNc1nc(OCc2ccccc2)nc2c1ncn2C1OC(CO)C(O)C1O (centres undefined) | melting point | 170 to 171 °C |
| CC1(C)OCCN1c1nc(-c2ccc(C#N)cc2)cs1 | melting point | 108 to 111 °C |
| COC(=O)C(C)(SC)c1ccc(N2C(=O)c3ccccc3C2=O)c(Cl)c1 (centres undefined) | melting point | 141 to 142 °C |

Hey, quick one: what's melting point for each of these?
1. CCCC(=O)NCCc1c[nH]c2ccc3c(c12)CCCO3
2. N#CC1=C(C2CCCCCC2)Nc2n[nH]cc2C1c1cccc(C#N)c1Br (centres undefined)

Reply:
1: 91 to 93 °C; 2: 252 °C

# credit: a melting point compilation (Tetko et al.; mined from patent text by program, amines drawn as free bases though some values may be those of a salt)
